Test system: A498 renal
Experiment: NCI tumour cell line growth inhibition, 48 h
Field: TGI. Provide a value for each of the molecules that follow.

Identify the measured TGI of `COc1cc2nc(-c3cccs3)oc(=O)c2cc1OC` for A498 renal.
> 100 µM

Identify the measured TGI of NC(CC1=CS(=O)(=O)c2ccc(Cl)cc21)C(=O)O (stereo unspecified) for A498 renal.
> 100 µM

Identify the measured TGI of CC(=O)Oc1cc(C(F)(F)F)ccc1C(=O)OC1(C)OC(=O)c2ccc(C(F)(F)F)cc2O1 (stereo unspecified) for A498 renal.
> 100 µM

Identify the measured TGI of `CCOC(CNCCC(=O)OC)OCC` for A498 renal.
> 10 µM

Identify the measured TGI of `COc1cc2cc(Oc3ccc(NC(=O)c4cc(C(F)(F)F)cc(C(F)(F)F)c4)cc3)c(C)nc2cc1OC` for A498 renal.
> 50 µM

Identify the measured TGI of `C[C@@H](Cl)[C@H]1CCCN(Cc2ccc(Br)cc2)C1` for A498 renal.
> 12.5 µM
